- Measured target: UniProt P11137
- Experiment notes: Microtubule polymerization activity (optical density at 345 nm)
- Assay type: biochemical
- Condition summary: increase in optical density at 345 nm, 37 °C, in the presence of GTP
Metric: Activity

>>> measured_result("CC(=O)[C@H]1[C@H](C)C[C@H]2[C@@H]3CC=C4C[C@@H](O)CC[C@]4(C)[C@H]3CC[C@@]21C [PREG-16a-methyl]")
"70% of PREG"
>>> measured_result("CO[C@H]1CC[C@@]2(C)C(=CCC3C2CC[C@@]2(C)C3CC[C@@]2(C(C)=O)C(Cl)Cl)C1 (stereo partly shown)")
"113% of PREG"
>>> measured_result("CO[C@H]1CC[C@@]2(C)[C@@H](CC[C@@H]3[C@@H]2CC[C@]2(C)[C@@H]([C@@H](C)O)CC[C@@H]32)C1")
"65% of PREG"
>>> measured_result("CC(=O)[C@H]1[C@@H](C)C[C@H]2[C@@H]3CC=C4C[C@@H](O)CC[C@]4(C)[C@H]3CC[C@@]21C")
"67% of PREG"
>>> measured_result("CC(=O)O[C@H](C)[C@H]1CC[C@H]2[C@@H]3CC=C4C[C@@H](O)CC[C@]4(C)[C@H]3CC[C@]12C [Pregna-5-ene-3β,20β-diol-20-acetate]")
"108% of PREG"
>>> measured_result("CC(=O)[C@@]12C[C@@H]1C[C@H]1[C@@H]3CC=C4C[C@@H](O)CC[C@]4(C)[C@H]3CC[C@@]12C [PREG-16a,17a-methylene]")
"49% of PREG"

Kindly review the next molecule as well.
Reported Activity for CO[C@H]1CC[C@@]2(C)C(=CC[C@H]3C4=CC[C@H](C(C)=O)[C@@]4(C)CC[C@@H]32)C1 was 50% of PREG

---

- System: microtubule-associated protein2 (MAP2)
- Experiment notes: Binding (affinity) by displacement of PREG-3H
- Condition summary: index of binding
Metric: Affinity

Recorded Affinity, per entry:
>>> measured_result("CC(=O)[C@@]12O[C@@H]1C[C@H]1[C@@H]3CC=C4C[C@@H](O)CC[C@]4(C)[C@H]3CC[C@@]12C [PREG-16a,17a-epoxy]")
"41% of PREG"
>>> measured_result("CC(=O)[C@H]1[C@H](C)C[C@H]2[C@@H]3CC[C@H]4C[C@@H](O)CC[C@]4(C)[C@H]3CC[C@@]21C [3β-hydroxy-5a-pregnane-20-one-16a-methyl]")
"57% of PREG"

Kindly review the next molecule as well.
Reported Affinity for CO[C@H]1CC[C@@]2(C)[C@@H](CC[C@@H]3[C@@H]2CC[C@]2(C)[C@@H]([C@@H](C)O)CC[C@@H]32)C1 was 65% of PREG

---

- System: microtubule-associated protein2 (MAP2)
- Experiment notes: Binding (affinity) by displacement of PREG-3H
- Condition summary: index of binding
Recorded Affinity values for a group of molecules are listed next.

>>> measured_result("CC(=O)[C@H]1[C@@H](C)C[C@H]2[C@@H]3CC=C4C[C@@H](O)CC[C@]4(C)[C@H]3CC[C@@]21C")
"63% of PREG"
>>> measured_result("CO[C@H]1CC[C@@]2(C)[C@@H](CC[C@@H]3[C@@H]2CC[C@]2(C)[C@@H](C(C)=O)CC[C@@H]32)C1 (stereo in doubt)")
"87% of PREG"

Kindly review the next molecule as well.
Reported Affinity for CC(=O)[C@H]1CC[C@H]2[C@@H]3CC=C4C[C@@H](O)CC[C@]4(C)[C@H]3CC[C@]12C [Pregnenolone (PREG), 3β-hydroxypregn-5α-en-20α-one, reference compound] was 100% of PREG

---

- Measured target: purified tubulin and MAP2 (Homo sapiens)
- Sequence (P11137 whole entry): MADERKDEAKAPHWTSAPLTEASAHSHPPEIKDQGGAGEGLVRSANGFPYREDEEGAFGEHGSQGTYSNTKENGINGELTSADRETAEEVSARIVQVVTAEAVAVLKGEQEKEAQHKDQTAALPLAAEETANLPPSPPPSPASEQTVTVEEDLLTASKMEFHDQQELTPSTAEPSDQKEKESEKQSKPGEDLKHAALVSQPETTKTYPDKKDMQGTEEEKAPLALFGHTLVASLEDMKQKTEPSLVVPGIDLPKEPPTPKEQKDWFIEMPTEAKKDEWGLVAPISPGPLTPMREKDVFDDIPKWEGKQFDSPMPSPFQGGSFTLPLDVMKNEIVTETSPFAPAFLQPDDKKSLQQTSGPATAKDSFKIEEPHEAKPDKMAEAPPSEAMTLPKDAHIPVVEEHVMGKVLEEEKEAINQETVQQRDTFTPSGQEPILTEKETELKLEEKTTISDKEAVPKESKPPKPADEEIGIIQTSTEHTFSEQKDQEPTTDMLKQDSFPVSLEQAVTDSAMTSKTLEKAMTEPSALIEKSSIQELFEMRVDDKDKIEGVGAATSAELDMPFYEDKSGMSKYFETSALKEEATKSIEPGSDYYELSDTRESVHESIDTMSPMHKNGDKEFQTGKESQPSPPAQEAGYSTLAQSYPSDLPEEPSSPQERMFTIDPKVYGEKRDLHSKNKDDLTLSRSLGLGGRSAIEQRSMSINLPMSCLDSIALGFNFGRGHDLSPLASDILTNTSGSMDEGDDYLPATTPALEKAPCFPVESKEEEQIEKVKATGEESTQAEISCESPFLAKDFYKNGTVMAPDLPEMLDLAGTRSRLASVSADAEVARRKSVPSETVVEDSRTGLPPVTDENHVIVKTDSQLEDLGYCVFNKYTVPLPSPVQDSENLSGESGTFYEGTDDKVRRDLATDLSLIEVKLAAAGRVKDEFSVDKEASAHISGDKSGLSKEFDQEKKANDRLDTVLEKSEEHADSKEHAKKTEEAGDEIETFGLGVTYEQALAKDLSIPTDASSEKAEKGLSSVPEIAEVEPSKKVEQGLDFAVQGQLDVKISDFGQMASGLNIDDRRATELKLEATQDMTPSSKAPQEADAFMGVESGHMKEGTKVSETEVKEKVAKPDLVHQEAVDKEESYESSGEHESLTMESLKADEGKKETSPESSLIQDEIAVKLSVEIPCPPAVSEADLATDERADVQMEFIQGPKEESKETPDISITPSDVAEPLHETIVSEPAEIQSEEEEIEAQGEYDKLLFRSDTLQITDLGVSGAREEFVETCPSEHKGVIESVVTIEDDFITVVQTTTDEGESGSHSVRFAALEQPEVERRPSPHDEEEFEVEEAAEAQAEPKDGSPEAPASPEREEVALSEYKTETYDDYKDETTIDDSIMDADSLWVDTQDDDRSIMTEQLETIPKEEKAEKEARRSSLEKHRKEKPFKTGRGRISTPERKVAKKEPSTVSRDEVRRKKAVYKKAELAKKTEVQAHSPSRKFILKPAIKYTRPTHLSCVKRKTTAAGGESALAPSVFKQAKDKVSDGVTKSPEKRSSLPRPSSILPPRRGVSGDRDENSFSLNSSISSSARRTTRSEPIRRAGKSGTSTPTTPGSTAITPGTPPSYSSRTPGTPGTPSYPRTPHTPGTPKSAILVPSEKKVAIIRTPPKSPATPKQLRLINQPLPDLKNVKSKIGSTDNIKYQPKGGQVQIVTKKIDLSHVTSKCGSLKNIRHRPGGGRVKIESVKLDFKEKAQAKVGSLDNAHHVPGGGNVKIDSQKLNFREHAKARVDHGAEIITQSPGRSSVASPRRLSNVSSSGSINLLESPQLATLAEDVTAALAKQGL
- Experiment notes: Microtubule polymerization activity (optical density at 345 nm)
- Type: biochemical
- Condition summary: increase in optical density at 345 nm, 37 °C, in the presence of GTP
Recorded Activity values for a group of compounds are listed next.

>>> measured_result("CC(=O)[C@H]1CC[C@H]2[C@@H]3CC=C4C[C@@H](O)CC[C@]4(C)[C@H]3CC[C@]12C [Pregnenolone (PREG), 3β-hydroxypregn-5α-en-20α-one, reference compound]")
"100% of PREG"
>>> measured_result("CO[C@H]1CC[C@@]2(C)[C@@H](CC[C@@H]3[C@@H]2CC[C@]2(C)[C@@H](C(C)=O)CC[C@@H]32)C1 (stereo in doubt)")
"10% of PREG"
>>> measured_result("CO[C@H]1CC[C@@]2(C)C(=CC[C@H]3[C@@H]4CC[C@H](C(C)=O)[C@@]4(C)CC[C@@H]32)C1 (stereo in doubt)")
"100% of PREG"
>>> measured_result("CC(=O)[C@@]12O[C@@H]1C[C@H]1[C@@H]3CC=C4C[C@@H](O)CC[C@]4(C)[C@H]3CC[C@@]12C [PREG-16a,17a-epoxy]")
"54% of PREG"

Reported Activity for CC(=O)[C@H]1[C@H](C)C[C@H]2[C@@H]3CC[C@H]4C[C@@H](O)CC[C@]4(C)[C@H]3CC[C@@]21C [3β-hydroxy-5a-pregnane-20-one-16a-methyl] was 53% of PREG

---

- Test system: microtubule-associated protein2 (MAP2)
- Experiment notes: Binding (affinity) by displacement of PREG-3H
- Condition summary: index of binding
Metric: Affinity

Recorded Affinity, per entry:
>>> measured_result("CC(=O)[C@H]1[C@H](C)C[C@H]2[C@@H]3CC=C4C[C@@H](O)CC[C@]4(C)[C@H]3CC[C@@]21C [PREG-16a-methyl]")
"80% of PREG"
>>> measured_result("CO[C@H]1CC[C@@]2(C)C(=CC[C@H]3[C@@H]4CC[C@H](C(C)=O)[C@@]4(C)CC[C@@H]32)C1 (stereo in doubt)")
"100% of PREG"
>>> measured_result("CC(=O)[C@@]12C[C@@H]1C[C@H]1[C@@H]3CC=C4C[C@@H](O)CC[C@]4(C)[C@H]3CC[C@@]12C [PREG-16a,17a-methylene]")
"62% of PREG"

Reported Affinity for CC(=O)O[C@H](C)[C@H]1CC[C@H]2[C@@H]3CC=C4C[C@@H](O)CC[C@]4(C)[C@H]3CC[C@]12C [Pregna-5-ene-3β,20β-diol-20-acetate] was 60% of PREG

Reported Affinity for CO[C@H]1CC[C@@]2(C)C(=CCC3C2CC[C@@]2(C)C3CC[C@@]2(C(C)=O)C(Cl)Cl)C1 (stereo partly drawn) was 53% of PREG

Reported Affinity for CO[C@H]1CC[C@@]2(C)C(=CC[C@H]3C4=CC[C@H](C(C)=O)[C@@]4(C)CC[C@@H]32)C1 was 102% of PREG
